Entries and their IC50
Biological target: Bromodomain-containing protein 2 (Homo sapiens, UniProt P25440)
Assay: Inhibition of HTRF binding to N-terminal His-tagged BRD2(2) (unknown origin) using biotinylated tetra-acetylated histone H4 peptide and Cryptate-labeled streptavidin incubated for 2 hrs by TR-FRET assay
Sequence (P25440 whole entry): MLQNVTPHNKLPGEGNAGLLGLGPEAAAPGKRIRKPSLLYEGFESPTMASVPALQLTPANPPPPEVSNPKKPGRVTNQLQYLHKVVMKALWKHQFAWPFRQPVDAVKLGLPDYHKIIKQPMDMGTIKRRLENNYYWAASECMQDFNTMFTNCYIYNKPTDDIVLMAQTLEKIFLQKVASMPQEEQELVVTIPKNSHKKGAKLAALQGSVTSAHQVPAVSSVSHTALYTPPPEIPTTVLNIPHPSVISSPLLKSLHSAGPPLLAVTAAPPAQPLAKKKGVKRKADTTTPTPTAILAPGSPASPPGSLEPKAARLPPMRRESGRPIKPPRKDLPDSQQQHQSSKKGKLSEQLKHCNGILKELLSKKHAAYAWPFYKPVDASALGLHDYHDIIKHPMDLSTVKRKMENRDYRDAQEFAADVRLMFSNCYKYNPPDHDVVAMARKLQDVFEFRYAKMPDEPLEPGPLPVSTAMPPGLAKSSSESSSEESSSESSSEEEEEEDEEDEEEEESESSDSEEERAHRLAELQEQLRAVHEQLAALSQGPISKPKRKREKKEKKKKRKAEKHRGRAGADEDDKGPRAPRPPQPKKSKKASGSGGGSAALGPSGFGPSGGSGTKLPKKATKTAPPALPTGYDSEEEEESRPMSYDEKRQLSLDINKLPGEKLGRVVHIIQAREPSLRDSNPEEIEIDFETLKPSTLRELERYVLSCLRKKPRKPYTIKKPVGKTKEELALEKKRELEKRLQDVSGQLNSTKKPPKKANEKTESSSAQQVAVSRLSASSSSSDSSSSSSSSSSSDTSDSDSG

> print(dat)
                                entrysmiles  measuredattribute  measvalue
1  COc1ccc(/C(=C\c2ccncc2)C(=O)N2CC(=O)Nc3ccccc32)cc1               IC50       5 µM

So what's the measured IC50 for this one? COc1ccc(/C=C(/C(=O)Nc2c(C)noc2C)c2ccc(OC)cc2)cc1 12 µM

And the next one, COc1ccc(/C=C(/C(=O)N2CC(=O)Nc3ccccc32)c2ccc(NC(C)=O)cc2)cc1 ? 24 µM

Follow-up item: COc1ccc(/C=C(/C(=O)N2CC(=O)Nc3ccccc32)c2ccc(OC)cc2OC)cc1 > 50 µM

* * *

Target: Bromodomain-containing protein 4 (Homo sapiens)
Experiment: Inhibition of HTRF binding to N-terminal His-tagged BRD4(1) (unknown origin) using biotinylated tetra-acetylated histone H4 peptide and Cryptate-labeled streptavidin incubated for 2 hrs by TR-FRET assay
measuredAttribute: pIC50
The quantity pIC50 is defined as the negative base-10 logarithm of the molar concentration.

A selection of reference data follows.
> print(dat)
                                entrysmiles  measvalue
1  O=C1CN(C(=O)c2cncc(-c3ccc(Cl)cc3)c2)c2ccccc2N1       4.31
2  O=C1CN(C(=O)c2cncc(-c3ccc(F)cc3)c2)c2ccccc2N1       4.33
3  O=C1CN(C(=O)c2cc(O)cc(-c3ccccc3)c2)c2ccccc2N1       5.05
4  COc1ccc(/C=C(/C(=O)N2CC(=O)Nc3cc(OC)ccc32)c2ccccc2)cc1       4.47
5  CC(=O)Nc1cccc(/C=C(/C(=O)N2CC(=O)Nc3ccccc32)c2ccccc2)c1       4.40

Could you share what pIC50 was measured for COc1ccc(/C=C(/C(=O)N2CC(=O)Nc3cc(OC)ccc32)c2ccc(OC)cc2)cc1 , tested on Bromodomain-containing protein 4 (Homo sapiens)? 4.89

Cool, now COc1ccc(/C=C(/C(=O)N2CC(=O)Nc3ccccc32)c2ccc(NC(C)=O)cc2)cc1 4.89

* * *

Molecular target: Bromodomain-containing protein 2 (Homo sapiens)
Experiment: Inhibition of HTRF binding to N-terminal His-tagged BRD2(2) (unknown origin) at 50 uM using biotinylated tetra-acetylated histone H4 peptide and Cryptate-labeled streptavidin incubated for 2 hrs by TR-FRET assay
Sequence (P25440 whole entry, looked up): as the sequence (P25440 whole entry) above
measuredAttribute: inhibition

Use these answered entries as a reference point.
> print(dat)
                                entrysmiles  measuredattribute  measvalue
1    O=C1CN(C(=O)Cc2cccc3ccccc23)c2ccccc2N1         inhibition      > 50%
2  O=C1CN(C(=O)C(c2ccccc2)c2ccccc2)c2ccccc2N1         inhibition      > 50%
3  O=C1CN(C(=O)c2cccc(C(F)(F)F)c2)c2ccccc2N1         inhibition      > 50%
4         CSc1ccccc1C(=O)N1CC(=O)Nc2ccccc21         inhibition      > 50%
5        CCn1ccc(C(=O)N2CC(=O)Nc3ccccc32)n1         inhibition      > 50%

Quick one: inhibition for COc1ccc(/C=C(/C(=O)N2CC(=O)Nc3ccccc32)c2ccccc2)cc1 ? > 50%

* * *

// values below are reported IC50
Molecular target: Bromodomain-containing protein 2 (Homo sapiens, UniProt P25440)
Assay: Inhibition of HTRF binding to N-terminal His-tagged BRD2(2) (unknown origin) using biotinylated tetra-acetylated histone H4 peptide and Cryptate-labeled streptavidin incubated for 2 hrs by TR-FRET assay
Provide the reading as a plain figure in µM.

Report IC50 for COc1ccc(/C=C(/C(=O)N2CC(=O)Nc3ccccc32)c2ccccc2)cc1 please. 22

// repeat for COc1ccc(/C=C(/C(=O)N2CC(=O)Nc3cc(OC)ccc32)c2ccc(OC)cc2)cc1 and report 13

Check COc1ccc(/C=C(/C(=O)N2CC(=O)Nc3ccccc32)c2cccs2)cc1 too. 23

Item: CC(=O)Nc1cccc(/C=C(/C(=O)N2CC(=O)Nc3ccccc32)c2ccccc2)c1 10

Same for COc1ccc(/C=C(/C(=O)N2CC(=O)Nc3ccccc32)c2ccc(OC)cc2)cc1 13
